- System: H1-HeLa cells
- methodDescription: Cytotoxicity (CC50) in mock-infected H1-HeLa cells, XTT dye reduction
- Assay type: cell-based, human
- conditionInfo: line of HRV-25
Give CC50 for every item shown.

Past entries and their recorded results:
compound="CCOC(=O)/C=C/[C@H](C[C@@H]1CCNC1=O)NC(=O)[C@@H]1CCc2ccc(NC(=O)c3cc(C)on3)c(=O)n21 [Compound 37]" studytarget="H1-HeLa cells" readouttype=CC50 endpointresult="> 10 µM"
compound="CCOC(=O)/C=C/[C@H](C[C@@H]1CCNC1=O)NC(=O)[C@@H]1CCc2c(Cl)cc(NC(=O)c3cc(C)on3)c(=O)n21 [Compound 39]" studytarget="H1-HeLa cells" readouttype=CC50 endpointresult="> 10 µM"

Input C#CC[C@@H](C(=O)N[C@H](/C=C/C(=O)OC1CCCC1)C[C@@H]1CCNC1=O)n1cccc(NC(=O)c2cc(C)on2)c1=O [Compound 40] . Output CC50: > 10 µM
